Tested on: plasma proteins
assay-name: Conventional UF without NSB correction, plasma protein binding
Assay type: in vitro ADME, rat
details: male, Sprague Dawley, rat plasma, conventional UF without NSB correction, mean ± SD, read-out: percentage of PPB (converted)
measured-attribute: fraction unbound at 2 h, 10 μM
Could you respond with only the numeric value?

# molecule COC(=O)c1ccccc1-c1c2ccc(=N)cc-2oc2cc(N)ccc12 [Rhodamine 123, rhodamine 123] ; its fraction unbound at 2 h, 10 μM = 0.103

###

System: plasma proteins
assay-name: Sequential UF, plasma protein binding
details: male, Sprague Dawley, rat, plasma
measured-attribute: fraction unbound at 2 h, 1 μg/mL
Lab note: jot the number down without any unit.

Input `Cc1cc(C2CCCCC2)n(O)c(=O)c1` . Output fraction unbound at 2 h, 1 μg/mL: 0.0129

###

System: plasma proteins
assay-name: Conventional UF with NSB correction using PBS, plasma protein binding
Format: in vitro ADME
details: male, Sprague Dawley, rat plasma, conventional UF with NSB correction by PBS, mean ± SD, read-out: percentage of PPB (converted)
measured-attribute: fraction unbound at 2 h, 10 μM
Reply with the value as a number alone.

Recorded fraction unbound at 2 h, 10 μM (compound `COC(=O)c1ccccc1-c1c2ccc(=N)cc-2oc2cc(N)ccc12` ): 0.33
